Provide the reported IC50 of each item.
target: SARS-CoV-2 B.1.1.7 spike protein (SARS-CoV-2 B.1.1.7 (Alpha), UniProt P0DTC2 13-1213); test: ELISA
One number for each entry, in nM.

The examples below pair each entry with its known result.
| binder | property-name | unit-label | value |
| --- | --- | --- | --- |
| 8-H5-A (antibody, V domains shown) VH: QVTLKESGPGILQSSQTLSLTCSLSGFSLSTSGMGVSWVRQPSGKGLEWLAHIYWDDDKRYTPSLKSRLTISTDSSRKQVFLKITSVDTADTATYYCARRDLHDYDGWFAYWGQGTLVTVSA VL: DIVMTQSQKFMSTAVGDRVSVTCKASQNVGTNVAWYQQKPGQSPKALIYSASFRYSGVPDRFSGSGSGTDFTLTISNVQSEDLAEYFCQQYNSYPLTFGSGTKLEIK | IC50 | nM | 15.4 |
| 1-L10-A (antibody, V domains shown) VH: EVKLEESGGGLVQPGGSMKLSCVASGFTFNNYWMNWVRQSPEKGLEWVAQMRLKSDNYATHYAESVKGRFTISRDDSKSSVYLQMNNLRAEDTGIYYCIEGYWTYWGQGTLVTVSA VL: QIVLTQSPAIMSASLGERVTMTCTASSSVSSSYLHWYQQKPGSSPKLWIYSTSNLASGVPARFSGNGSGTSYSLTISSMEAEDAATYYCLQYHRSPPYTFGGGTKLEIK | IC50 | nM | 7.82 |

Turning now to a further record.
Return reported IC50. Input binder: 4-N22-A (antibody, V domains shown) VH: QVQLQQPGTELVKPGASVKLSCKASGYTFTNYWMYWVKQRPGQGLDWIGNINPSNGGTNYNEKFKSKATLTVDKSSSTAYMQLSSLTSEDSAVYYCARETGNYWGQGTTLTVSS VL: DILMTQSPSSMSVSLGDTVSISCHASQGISSNIGWLQQKPGKSFKGLIYHGTNLEDGVPSRFSGSGSGADYSLTISSLESEDFADYYCVQYAQFPYTFGGGTKLEIK 1.51
